System: MaTu/ADR multidrug-resistant human breast tumor cells
ASSAY INFO: Inhibition of cell proliferation, crystal violet staining
Format: cell-based
MEASUREMENT SETUP: 4 days incubation
Experimental: Cell cultures of the following cell lines were prepared in 96-well microtiter plates: • 1. MaTu/ADR multidrug-resistant human breast tumor cells (Epo GmbH Berlin), 5000 cells/well. • 2. HCT116 human colon tumor cells (ATCC CCL-247), 3000 cells/well. • 3. NCl-H460 human non-small-cell lung cancer cells (ATCC HTB-177), 3000 cells/well. • 4. DU145 human prostate tumor cells (ATCC HTB-81), 5000 cells/well. • 5. HMVEC human primary dermal microvascular endothelial cells, 7500 cells/well. […]
MEASURED METRIC: IC50 (nM)

{"COMPOUND": "COc1cc2c(cc1O)CC[C@@H]1[C@@H]2CC[C@]2(C)[C@@H](O)CC[C@@H]12 [2-Methoxyestradiol, reference compound]", "TARGET SYSTEM": "MaTu/ADR multidrug-resistant human breast tumor cells", "MEASURED METRIC": "IC50", "VALUE OPERATOR": "=", "REPORTED RESULT": 200}
{"COMPOUND": "COc1cc2c(cc1OS(N)(=O)=O)CC[C@@H]1[C@@H]2CC[C@]2(C)C(=O)CCC[C@@H]12", "TARGET SYSTEM": "MaTu/ADR multidrug-resistant human breast tumor cells", "MEASURED METRIC": "IC50", "VALUE OPERATOR": "<", "REPORTED RESULT": 100}
{"COMPOUND": "COc1cc2c(cc1OS(N)(=O)=O)CC[C@@H]1[C@@H]2CC[C@]2(C)[C@@H](OS(N)(=O)=O)CCC[C@@H]12", "TARGET SYSTEM": "MaTu/ADR multidrug-resistant human breast tumor cells", "MEASURED METRIC": "IC50", "VALUE OPERATOR": "=", "REPORTED RESULT": 800}

----------
Tested on: DU145 human prostate tumor cells
ASSAY INFO: Inhibition of cell proliferation, crystal violet staining
Assay type: cell-based
MEASUREMENT SETUP: Homo sapiens, DU-145, 96 h; DU145, 4 days incubation
pIC50: −log10 of the molar value.
# pIC50 per record follows

{"COMPOUND": "COc1cc2c(cc1OS(N)(=O)=O)CC[C@@H]1[C@@H]2CC[C@]2(C)CCCC[C@@H]12", "pIC50": 6.22}
{"COMPOUND": "CC(=O)O[C@H]1C(=O)[C@@]2(C)[C@H]([C@H](OC(=O)c3ccccc3)[C@]3(O)C[C@H](OC(=O)[C@H](O)[C@@H](NC(=O)c4ccccc4)c4ccccc4)C(C)=C1C3(C)C)[C@]1(OC(C)=O)CO[C@@H]1C[C@@H]2O [Taxol, reference compound]", "pIC50": 8.40}

----------
Tested on: DU145 human prostate tumor cells
ASSAY INFO: Inhibition of cell proliferation, crystal violet staining
Type: cell-based
MEASUREMENT SETUP: DU145, 4 days incubation

{"MOLECULE": "COc1cc2c(cc1OS(N)(=O)=O)CC[C@@H]1[C@@H]2CC[C@]2(C)C(=O)CCC[C@@H]12", "IC50 / nM": 500}
{"MOLECULE": "COc1cc2c(cc1OS(N)(=O)=O)CC[C@@H]1[C@@H]2CC[C@]2(C)[C@@H](OS(N)(=O)=O)CCC[C@@H]12", "IC50 / nM": 2800}
{"MOLECULE": "COc1cc2c(cc1O)CC[C@@H]1[C@@H]2CC[C@]2(C)[C@@H](O)CC[C@@H]12 [2-Methoxyestradiol, reference compound]", "IC50 / nM": 1900}

----------
Below, each of the compounds is paired with its reported IC50 value.
System: HMVEC human primary dermal microvascular endothelial cells
ASSAY INFO: Inhibition of cell proliferation, crystal violet staining
Format: cell-based
MEASUREMENT SETUP: 4 days incubation

{"COMPOUND": "COc1cc2c(cc1O)CC[C@@H]1[C@@H]2CC[C@]2(C)[C@@H](O)CC[C@@H]12 [2-Methoxyestradiol, reference compound]", "UNIT OF MEASURE": "nM", "IC50": 2200}
{"COMPOUND": "COc1cc2c(cc1OS(N)(=O)=O)CC[C@@H]1[C@@H]2CC[C@]2(C)C(=O)CCC[C@@H]12", "UNIT OF MEASURE": "nM", "IC50": 220}
{"COMPOUND": "COc1cc2c(cc1OS(N)(=O)=O)CC[C@@H]1[C@@H]2CC[C@]2(C)[C@@H](OS(N)(=O)=O)CCC[C@@H]12", "UNIT OF MEASURE": "nM", "IC50": 600}

----------
Test system: NCl-H460 human non-small-cell lung cancer cells
ASSAY INFO: Inhibition of cell proliferation, crystal violet staining
Type: cell-based
MEASUREMENT SETUP: NCl-H460, 4 days incubation
pIC50: −log10 of the molar value.

{"MOLECULE": "COc1cc2c(cc1OS(N)(=O)=O)CC[C@@H]1[C@@H]2CC[C@]2(C)[C@@H](OS(N)(=O)=O)CCC[C@@H]12", "pIC50": 5.74}
{"MOLECULE": "COc1cc2c(cc1OS(N)(=O)=O)CC[C@@H]1[C@@H]2CC[C@]2(C)C(=O)CCC[C@@H]12", "pIC50": 6.74}
{"MOLECULE": "COc1cc2c(cc1O)CC[C@@H]1[C@@H]2CC[C@]2(C)[C@@H](O)CC[C@@H]12 [2-Methoxyestradiol, reference compound]", "pIC50": 5.74}
